# System: VDR homodimer (NR concentration 270 nM)
# Procedure Summary: PBM binding z-score (relative to random genomic background probes); higher = stronger binding; sequences stand for … in GC…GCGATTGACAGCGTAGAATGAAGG
Returns the class for an entry based on its PBM binding z-score. Class ranges: range A: < 0.2; range B: ≥ 0.2 and < 1; range C: ≥ 1

// bin(item) where item = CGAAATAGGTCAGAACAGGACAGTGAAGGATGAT
range B

// bin(item) where item = CCTATTAGTTGACCATAAGGGCAACAGAAGCTCG
range B

// bin(item) where item = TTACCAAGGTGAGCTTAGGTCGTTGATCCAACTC
range A

// bin(item) where item = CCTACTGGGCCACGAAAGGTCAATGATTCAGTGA
range B

// bin(item) where item = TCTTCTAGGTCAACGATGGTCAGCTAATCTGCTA
range B

// bin(item) where item = CGTCCAAGGTTAATGCTAGGTCAGTGAAAGCATT
range B

// bin(item) where item = TCTTGTAGATCAAAGGTTAAGAGAGCCGAAGCCT
range A

// bin(item) where item = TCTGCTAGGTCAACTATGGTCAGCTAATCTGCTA
range A

// bin(item) where item = TCATATAGGTAAACAGGTGAAACTCCGTAAGTTA
range B

// bin(item) where item = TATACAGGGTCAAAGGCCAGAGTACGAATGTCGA
range C

// bin(item) where item = CCGACTGGGGCAGAAAGGTTACCATGCCATCCGG
range A

// bin(item) where item = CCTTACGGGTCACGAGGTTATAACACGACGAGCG
range C

// bin(item) where item = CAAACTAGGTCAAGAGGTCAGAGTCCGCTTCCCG
range C

// bin(item) where item = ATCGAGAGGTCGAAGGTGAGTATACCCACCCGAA
range B

// bin(item) where item = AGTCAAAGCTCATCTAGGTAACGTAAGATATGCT
range A

// bin(item) where item = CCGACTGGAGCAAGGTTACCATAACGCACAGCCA
range A

// bin(item) where item = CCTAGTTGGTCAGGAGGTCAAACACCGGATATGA
range C

// bin(item) where item = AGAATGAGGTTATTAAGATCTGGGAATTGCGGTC
range B

// bin(item) where item = TCTCGGAGGACACGAAGATCAGAGCTTTCCAGAG
range A

// bin(item) where item = ACTAGTTGGTCAGTTGAGGTCACACACAATTCGG
range C

// bin(item) where item = ACTCGGAGGACAAAGGTCAGAGCTACGCCAGTGA
range C

// bin(item) where item = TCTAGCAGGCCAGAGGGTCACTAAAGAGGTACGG
range B

// bin(item) where item = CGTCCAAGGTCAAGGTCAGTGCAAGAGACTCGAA
range C

// bin(item) where item = ATATGTAGGTTACATCAGGGTCATTCAGGCTATG
range C

// bin(item) where item = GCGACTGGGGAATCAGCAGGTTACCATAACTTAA
range A
